Answer each item with its documented inhibition at 20 min.
# system: CYP2C19 (Homo sapiens (Human), UniProt P33261)
# Sequence (P33261 whole entry): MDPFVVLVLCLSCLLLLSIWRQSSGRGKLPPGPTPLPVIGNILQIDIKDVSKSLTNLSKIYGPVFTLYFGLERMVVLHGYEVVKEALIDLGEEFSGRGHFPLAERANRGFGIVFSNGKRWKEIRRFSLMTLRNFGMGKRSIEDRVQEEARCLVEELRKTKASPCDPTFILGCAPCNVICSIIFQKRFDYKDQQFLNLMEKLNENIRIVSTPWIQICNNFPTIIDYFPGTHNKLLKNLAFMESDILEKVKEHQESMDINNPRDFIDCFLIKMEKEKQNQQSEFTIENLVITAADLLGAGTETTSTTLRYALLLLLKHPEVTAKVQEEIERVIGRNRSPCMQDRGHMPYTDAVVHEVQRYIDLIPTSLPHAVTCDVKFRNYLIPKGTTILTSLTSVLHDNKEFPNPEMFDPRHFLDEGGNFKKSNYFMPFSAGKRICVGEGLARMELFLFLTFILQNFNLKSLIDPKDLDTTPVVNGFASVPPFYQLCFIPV
# protocol.description: Direct inhibition test (DI test), CYP 2C19
# Format: in vitro ADME
# condition.parameters: human liver microsomes 0.2 mg/ml, read-out: Direct inhibition rate (%) 2C19
Report as a plain number; the unit % is understood.

Fill blank: measured inhibition at 20 min of the compound Cc1ccc(-n2nc(C(=O)N3C[C@@H](C)N[C@@H](C)C3)cc2-c2ccc3c(c2)N(C2CCCC2)[C@H](C)C(=O)N3C)cc1 is ____.
19

Fill blank: measured inhibition at 20 min of the compound Cc1ccc(-n2nc(C(=O)N3CCN(C)CC3)cc2-c2ccc3c(c2)N(C2CCCC2)[C@H](C)C(=O)N3C)cc1 is ____.
34

Fill blank: measured inhibition at 20 min of the compound C[C@@H]1C(=O)N(C)c2ccc(-c3nc(C(=O)N4CCCN(C)CC4)nn3-c3ccccc3)cc2N1C1CCCC1 is ____.
35
